Each recorded value in this set is attributed to ChEMBL document CHEMBL1157465.

molecular target: Angiopoietin-1 receptor (Homo sapiens, UniProt Q02763); experiment: Inhibition of human recombinant TIE2
Sequence (Q02763 whole entry): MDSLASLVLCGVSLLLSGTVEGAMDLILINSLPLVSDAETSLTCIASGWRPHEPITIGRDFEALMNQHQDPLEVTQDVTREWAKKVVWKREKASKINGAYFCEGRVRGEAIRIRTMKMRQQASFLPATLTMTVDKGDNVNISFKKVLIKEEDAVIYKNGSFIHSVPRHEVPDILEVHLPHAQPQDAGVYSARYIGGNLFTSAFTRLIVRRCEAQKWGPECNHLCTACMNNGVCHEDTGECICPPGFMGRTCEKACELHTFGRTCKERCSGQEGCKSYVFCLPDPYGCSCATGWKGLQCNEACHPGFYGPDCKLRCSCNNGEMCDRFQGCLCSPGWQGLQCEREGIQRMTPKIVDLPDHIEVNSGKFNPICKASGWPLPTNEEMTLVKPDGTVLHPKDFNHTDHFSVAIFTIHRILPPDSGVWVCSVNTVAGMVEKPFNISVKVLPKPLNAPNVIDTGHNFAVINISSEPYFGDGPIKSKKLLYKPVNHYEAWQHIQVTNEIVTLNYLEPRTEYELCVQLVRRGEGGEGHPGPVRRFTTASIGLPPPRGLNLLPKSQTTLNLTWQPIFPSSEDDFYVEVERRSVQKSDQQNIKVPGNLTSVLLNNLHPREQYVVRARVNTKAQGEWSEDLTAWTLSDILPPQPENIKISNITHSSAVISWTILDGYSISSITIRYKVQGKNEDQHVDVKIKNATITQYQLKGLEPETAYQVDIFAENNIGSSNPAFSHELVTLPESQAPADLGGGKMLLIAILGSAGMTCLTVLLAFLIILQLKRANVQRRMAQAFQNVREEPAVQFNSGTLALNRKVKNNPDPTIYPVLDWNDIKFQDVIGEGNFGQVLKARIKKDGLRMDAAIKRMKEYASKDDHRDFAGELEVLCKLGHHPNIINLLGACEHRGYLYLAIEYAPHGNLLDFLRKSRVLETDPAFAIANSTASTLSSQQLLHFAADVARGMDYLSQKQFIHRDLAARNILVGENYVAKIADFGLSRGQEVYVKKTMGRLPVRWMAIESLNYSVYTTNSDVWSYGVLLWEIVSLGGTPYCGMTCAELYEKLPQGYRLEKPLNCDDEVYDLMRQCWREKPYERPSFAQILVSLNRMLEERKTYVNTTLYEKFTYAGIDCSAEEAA
Measured IC50 determines class: small value (below 10 µM), mid value (10 µM to below 30 µM), large value (30 µM or more)

# example entries with known answers
# molecule, label value
records = [
    ("COc1cc(C2=C(c3cn(COCc4ccccc4)c4ccccc34)CNC2=O)cc(OC)c1OC", "mid value"),
    ("COc1cc(C2=C(c3c[nH]c4ccccc34)CNC2=O)cc(OC)c1OC", "small value"),
    ("CCOCn1cc(C2=C(c3cc(OC)c(OC)c(OC)c3)C(=O)NC2)c2ccccc21", "mid value"),
    ("COc1cc(C2=C(c3cn(COC(C)(C)C)c4ccccc34)CNC2=O)cc(OC)c1OC", "mid value"),
    ("COCn1cc(C2=C(c3cc(OC)c(OC)c(OC)c3)C(=O)NC2)c2ccccc21", "mid value"),
]

**Q:** Kindly identify the class of COc1cc(C2=C(c3cn(COCC[Si](C)(C)C)c4ccccc34)CNC2=O)cc(OC)c1OC .
**A:** mid value

**Q:** Same read-out for COc1ccc(C2=C(c3cn(C)c4ccccc34)C(=O)NC2)cc1 ?
**A:** large value

**Q:** Now the same for COc1cc(C2=C(c3cn(COC(C)C)c4ccccc34)CNC2=O)cc(OC)c1OC
**A:** mid value

**Q:** Same question, COc1cc(C2=C(c3cn(COc4ccccc4)c4ccccc34)CNC2=O)cc(OC)c1OC this time
**A:** small value

**Q:** Then COc1cc(C2=C(c3c[nH]c4ccccc34)C(=O)NC2)cc(OC)c1OC ?
**A:** large value

**Q:** Record: COc1cc(C2=C(c3cn(CC(O)CO)c4ccccc34)CNC2=O)cc(OC)c1OC (configuration not stated)
**A:** mid value

**Q:** Request: COc1cc(C2=C(c3cn(CC4COC(C)(C)O4)c4ccccc34)CNC2=O)cc(OC)c1OC (configuration not stated)
**A:** large value
